Please provide measured folding enthalpy for the entries that follow.
Assay Comment: folding enthalpy; higher = less favourable; fluorescence melt of hairpins on a sequencing array, two-state fit
Run Parameters: sodium 0.088 M
The answer is to be given in kcal/mol; state only the numeric part.

Task item: If you can, please state the reported folding enthalpy value of GTACCCGAAAGGGCTTAC ((((((....)))..))) .
Reply: -11.2

Task item: // folding enthalpy lookup, key: GACTGCGGAAACGCAGCC (.(((((....))))).)
Reply: -11.2

Task item: Quick check: folding enthalpy of GATCGAACTGTCGATC ((((((....)))))) ?
Reply: -31.1

Task item: Item GATCTTGCCCAAGATC ((((((....)))))) has what recorded folding enthalpy?
Reply: -45.9

Task item: Any idea what folding enthalpy was measured for GGTCTTGGAAACGAGATC (.(((.(....).))).) ?
Reply: -17.8

Task item: Param item = GGTAGACGAAAGTCACC (((.(((....)))))) ; retrieve measured folding enthalpy.
Reply: -23.6

Task item: What folding enthalpy value was documented for this sequence, GCGTCTAAACGC ((((....)))) ?
Reply: -23

Task item: Which folding enthalpy is listed for GAGGAAGGAAACCTCCTC (((((.(....).))))) ?
Reply: -25.9

Task item: State the recorded folding enthalpy for this entry: GCAGCGCGAAAGCGTCGC ((..(((....)))..))
Reply: -17.5

Task item: What measured folding enthalpy goes with GGGGCCGAAAGGCTGCCC ((((((....)))..))) ?
Reply: -14.2

Task item: Return reported folding enthalpy; argument: GTTTTACGAAAGTAAAC (((.(((....))))))
Reply: -17.4

Task item: Could you share which folding enthalpy value was measured for GGCAACGGAAACACTGCC ((((..(....)..)))) ?
Reply: -15

Task item: Record request: folding enthalpy value, item GATCATGCGAAAGCAATC (((..(((....))))))
Reply: -9.85

Task item: What value of folding enthalpy has been recorded for this entry: GTATTGGGAAACCGATAC ((((.((....)).))))
Reply: -35.7

Task item: Which folding enthalpy is reported for this sequence? GTTCGCGCGAAAGCGAAC (((..(((....))))))
Reply: -28.1

Task item: Reported folding enthalpy for GCTTGGCGAAAGCCCTGC ((..(((....)))..)) : what is it?
Reply: -13.6

Task item: // folding enthalpy lookup, key: GAACGCGGAAACGTGTTC ((((.((....)).))))
Reply: -37.7

Task item: Could you share which folding enthalpy value was measured for GGTTGAGGAAACTTAACC ((((.((....)).)))) ?
Reply: -31.9

Task item: Need folding enthalpy, item GCTGGTGGAAACACCGGC ((.((((....)))).))
Reply: -36.1

Task item: Which folding enthalpy is listed for GCGGCGCGAAAGCGAGGC ((..(((....)))..)) ?
Reply: -24.8

Task item: Recorded folding enthalpy of GCACAAGGAAACTTGTGC (((((((....))))))) , please.
Reply: -33.7

Task item: Which folding enthalpy reading was recorded for the sequence GGAGTTGAAAAACTCC ((((((....)))))) ?
Reply: -36.2

Task item: Return reported folding enthalpy; argument: GATCAAGTCCTTGATC ((((((....))))))
Reply: -38.2

Task item: Would you mind telling me what folding enthalpy value was observed for GCTCTAGAAATAGAGC ((((((....)))))) ?
Reply: -34.1

Task item: Entry GAGTGCGAAAGCACACTC ((((((....)))..))) has what folding enthalpy?
Reply: -12.6

###

Assay Comment: melting temperature; fluorescence melt of hairpins on a sequencing array, two-state fit, raised by 9.35 °C to match UV melts
Run Parameters: sodium 0.088 M
I'd appreciate it if you could supply Tm values for the items below.
Express the reported value numerically, then name its unit.

Task item: Using the record for CGCATCGGAAACGAGCG (((.(((....)))))) , report its Tm.
Reply: 49.5 °C

Task item: Find the recorded Tm belonging to GCAGGATCGAAAGATTGC (((..(((....)))))) and report it.
Reply: 31.4 °C

Task item: What measured Tm goes with GGCAGACCGAAAGGTGCC (((..(((....)))))) ?
Reply: 55.4 °C

Task item: So what's the measured Tm for this one? GATCCTACTCAGGATC ((((((....))))))
Reply: 52 °C

Task item: Sample CGTCCGGAAACGGGTACG ((((((....)))..))) — what was its Tm?
Reply: 42.4 °C

Task item: If you can, please state the reported Tm value of GATCAGATGCTGATC ((((((...)))))) .
Reply: 49.4 °C

Task item: Quick check: Tm of GTTCCCGAAAGGGGAAC ((((((....))).))) ?
Reply: 57.4 °C

Task item: Name the reported Tm value associated with the sequence GACCTGGGAAACCAAGTC (((.(((....))).)))
Reply: 33.4 °C

Task item: I'd like to know its Tm. The sequence in question is GGTTATCGAAAGATTACC (((.(((....))).)))
Reply: 43.5 °C

Task item: Name the recorded Tm for GCTCCGCGAAAGCGAGGC ((..(((....)))..)) .
Reply: 55.6 °C

Task item: What value of Tm has been reported for the following sequence? GATCATCCTGATGATC ((((((....))))))
Reply: 54.5 °C

Task item: Which Tm is reported for this sequence? GATCGGTAAGCCGATC ((((((....))))))
Reply: 58.9 °C

###

What folding enthalpy was measured for each of the following?
Assay Comment: folding enthalpy; higher = less favourable; fluorescence melt of hairpins on a sequencing array, two-state fit
Run Parameters: sodium 0.088 M
Respond numerically; units are kcal/mol and should not be typed.

Task item: Could you tell me which folding enthalpy is on file for GTAGCAGCGAAAGCTTAC (((..(((....)))))) ?
Reply: -10.3

Task item: Dear colleague, I am looking for the recorded folding enthalpy of the following sequence: GCCAGGGGAAACTCTGGC (((((.(....).)))))
Reply: -40.9

Task item: Any idea what its folding enthalpy is? The sequence is GTGCCCGAAAGGGTACAC ((((((....)))..)))
Reply: -13.9

Task item: Param item = CGCGTCCGGAAACGGGCG (((..(((....)))))) ; retrieve measured folding enthalpy.
Reply: -14

Task item: What does the data say about its folding enthalpy? Entry: GAATAGGGAAACCTGTTC (((.(((....))).)))
Reply: -30.6

Task item: State the recorded folding enthalpy for this entry: CGGACGCGGAAACGCCCG (((..(((....))))))
Reply: -25.3

Task item: May I ask what folding enthalpy has been recorded for GATTGAGGAAACTCAGTC ((.((((....)))).)) ?
Reply: -26.8

Task item: Fill in: folding enthalpy of GCACGGCGAAAGCCTTGC (((.(((....))).))) is ___
Reply: -54.8

Task item: So what does the record say about folding enthalpy for GTAGGTGAAAACCTAC ((((((....)))))) ?
Reply: -30.9

Task item: What value of folding enthalpy has been reported for the following sequence? GACGGCGGAAACGTCGTC ((((.((....)).))))
Reply: -52.8

Task item: Entry ATTGTGAAAACAAT (((((....))))) has what folding enthalpy?
Reply: -14.9

Task item: Requested read-out: folding enthalpy. Entry: GATCGAGGAAACTTGATC ((((.((....)).))))
Reply: -28.7

Task item: Recorded folding enthalpy for GAGCACGAAAGTGCCTC ((((((....))).))) , please?
Reply: -10.4

Task item: Request the reported folding enthalpy associated with GAGTCGGAAACGACTC ((((((....))))))
Reply: -37.5

Task item: Suppose we examine the sequence GCCCTAGAAATAGGGC ((((((....)))))) ; what folding enthalpy value has been reported?
Reply: -37.2

Task item: // folding enthalpy lookup, key: GTGGTTGGAAACGATCAC (((.(.(....).).)))
Reply: -18

Task item: Item under review: GATCCTTGAGAGGATC ((((((....)))))) . Reported folding enthalpy?
Reply: -42.5

Task item: Fill blank: measured folding enthalpy of the sequence GAATACGAAAGTACTTC ((((((....))).))) is ____.
Reply: -17

Task item: Sample GATCGGTAAGCCGATC ((((((....)))))) — what was its folding enthalpy?
Reply: -49.4

Task item: Fill in: folding enthalpy of GATCAGAACTCTGATC ((((((....)))))) is ___
Reply: -37.6

Task item: Fill in: folding enthalpy of GGCTTTGGAAACAAAGTC (.(((((....))))).) is ___
Reply: -39.8

Task item: For the sequence GTGAGTCGAAAGACCAC (((.(((....)))))) , what folding enthalpy is on record?
Reply: -33.7

Task item: What value of measured folding enthalpy is listed for GGCCAAGGAAACCTGGCC (((((.(....).))))) ?
Reply: -42.3

Task item: # query: folding enthalpy of entry TCAGAGAAATCTGA (((((....)))))
Reply: -9.32

Task item: Form field: reported folding enthalpy of GATCACGAAAGTGGCATC ((((((....)))..)))
Reply: -12.3

Task item: Please give the measured folding enthalpy for this sequence: GATCCCTTATGGGATC ((((((....))))))
Reply: -36.5

Task item: Entry GATAAGCGAAAGCTAATC (((.(((....))).))) has what folding enthalpy?
Reply: -16.8

Task item: Given the sequence GCGTCACGAAAGTGTCGC (((.(((....))).))) , what is its reported folding enthalpy?
Reply: -42.4

Task item: Recorded folding enthalpy for GCACGAGGAAACCCGTAC (.(((.(....).))).) , please?
Reply: -6.61

Task item: Quick one: folding enthalpy of GACCGTGGAAACACGGCC (.(((((....))))).) ?
Reply: -13.2

Task item: Entry GCTTATACGAAAGTAAGC (((..(((....)))))) has what folding enthalpy?
Reply: -21.5

Task item: So what does the record say about folding enthalpy for GCCCAGGGAAACCTGAGC ((.((((....)))).)) ?
Reply: -19.2

Task item: Any idea what its folding enthalpy is? The sequence is GAAGGGCGAAAGCCTTC (((.(((....))))))
Reply: -14.3

Task item: Consider the sequence GAAATTGGAAACGATTTC (((((.(....).))))) and give its measured folding enthalpy.
Reply: -30.1

Task item: Look up folding enthalpy: GTGAAAGCGAAAGCTCAC (((..(((....))))))
Reply: -23.9

Task item: Fill in: folding enthalpy of CCTTCGAAAGAAGG (((((....))))) is ___
Reply: -20.7

Task item: Any idea what folding enthalpy was measured for GATCACTAGTGTGATC ((((((....)))))) ?
Reply: -37.6

Task item: Entry GTGCTAGGAAACCAGCAC (((((.(....).))))) has what folding enthalpy?
Reply: -37

Task item: Which value of folding enthalpy has been reported for GATCAGAGGACTGATC ((((((....)))))) in the records?
Reply: -32.8

Task item: If you can, please state the reported folding enthalpy value of GCCCAACGAAAGTTAGGC (((.(((....))).))) .
Reply: -34.3

Task item: Request the reported folding enthalpy associated with GCATAAGAAATTATGC ((((((....))))))
Reply: -28.6

Task item: # query: folding enthalpy of entry GATAAGCGAAAGCTCATC (((.(((....))).)))
Reply: -15.9

Task item: Which folding enthalpy is reported for this sequence? GTGTTGCCGAAAGGCCAC (((..(((....))))))
Reply: -10.3

Task item: Query (sequence): GTTAAACCGAAAGGTAAC (((..(((....)))))) ; field requested: folding enthalpy
Reply: -15.2

Task item: Given GATCGGCGAAAGCCATC (((.(((....)))))) , state its recorded folding enthalpy.
Reply: -11

Task item: What does the data say about its folding enthalpy? Entry: GTGATCCGAAAGGACAC (((.(((....))))))
Reply: -22.5

Task item: What value of measured folding enthalpy is listed for GAACACGGAAACGCGTTC ((((.((....)).)))) ?
Reply: -35.8

Task item: For the sequence shown here, GTGTCCGGAAACGGATGC (..((((....))))..) , give the reported folding enthalpy.
Reply: -25.7

Task item: Fill in: folding enthalpy of ATCTTGAAAAAGAT (((((....))))) is ___
Reply: -9.95

Task item: Sample GATCAGAACCCTGATC ((((((....)))))) — what was its folding enthalpy?
Reply: -39.8
